tested-target: Pyruvate dehydrogenase kinase (Rattus norvegicus) (UniProt Q63065+A6IPZ9+Q64536+O54937)
protocol-summary: Tested for pyruvate oxidation in rat diaphragm, measured as % conversion of [14C]pyruvate to 14CO2 at 0.5 mM concentration of DCA (dichloroacetic acid)
Type: functional, tissue-based
reported-property: Stimulation (%)

Observe how each entry below is paired with its result.
[
  {
    "compound": "CC(C)Sc1ccc(C(=O)C(=O)O)cc1",
    "Stimulation (%)": 26
  },
  {
    "compound": "CN(C)c1ccc(C(=O)C(=O)O)cc1",
    "Stimulation (%)": 1
  },
  {
    "compound": "CCS(=O)(=O)Nc1ccc(C(=O)C(=O)O)cc1",
    "Stimulation (%)": 16
  }
]

1. O=C(O)C(=O)c1ccc(CO)cc1
2. CCSc1ccc(C(=O)C(=O)O)cc1
3. O=C(O)C(=O)c1ccccc1
4. Cc1ccc(C(=O)C(=O)O)cc1
5. COc1ccc(C(=O)C(=O)O)cc1
# input Sequence the entries by Stimulation, beginning with the highest number. Please express your ranking as an ordered list of the labels.
# output 2, 5, 3, 4, 1

P. Cc1ccc(C(N)C(=O)O)cc1 (stereo not given)
Q. O=C(O)C(=O)c1cc(I)c(O)c(I)c1
R. O=C(O)C(=O)c1ccc(O)cc1
S. C=CCc1cc(C(=O)C(=O)O)ccc1O
# input Provide the items ranked by increasing Stimulation. Please express your ranking as an ordered list of the labels.
# output Q, S, P, R
(Q: 5%, S: 11%, P: 24%, R: 63%)

a. Cc1cc(C(=O)C(=O)O)ccc1O
b. CCCCSc1ccc(C(=O)C(=O)O)cc1
# input Determine, for a and b , which has the greater value of Stimulation. # reply format: chosen label
# output b
